Every entry's value here was drawn from patent US10167284B2.

Target: human muscarinic M4 receptor (Homo sapiens, UniProt P08173)
Construct: expressed in transfected cells
Sequence (P08173 1-479): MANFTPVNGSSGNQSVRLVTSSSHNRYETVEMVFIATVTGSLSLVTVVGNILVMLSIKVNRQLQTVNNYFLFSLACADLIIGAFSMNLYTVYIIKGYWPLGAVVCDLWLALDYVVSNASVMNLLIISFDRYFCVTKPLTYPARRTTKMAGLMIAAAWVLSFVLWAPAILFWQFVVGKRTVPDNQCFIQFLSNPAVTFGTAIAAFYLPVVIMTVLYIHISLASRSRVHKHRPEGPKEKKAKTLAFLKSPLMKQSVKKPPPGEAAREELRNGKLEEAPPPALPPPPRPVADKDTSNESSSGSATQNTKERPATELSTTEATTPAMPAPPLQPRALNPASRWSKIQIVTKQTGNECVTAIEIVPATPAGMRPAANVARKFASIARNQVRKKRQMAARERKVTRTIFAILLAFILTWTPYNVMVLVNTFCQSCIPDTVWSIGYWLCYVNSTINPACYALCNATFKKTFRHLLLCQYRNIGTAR
Assay: Alphascreen Surefire phospho-ERK1/2 functional assay, M4
Format: cell-based
Conditions: CHO cells stably expressing human M4; phospho-ERK1/2; read-out: pEC50 M4 (converted)
Readout label: EC50 (nM)
State just the number; it will be interpreted in nM.

Worked examples follow.
Item under review: CCCN1C(=O)OC2(CCN(C3CC4(CCN(C(=O)OCC)C4)C3)CC2)C1CC (single isomer, unassigned) [4-23 Isomer 4] . Reported EC50?
10

Could you do the same for CCOC(=O)N1CCC2(CC(N3CCC4(CC3)OC(=O)N(CC(F)(F)F)C4(C)C)C2)C1 (single isomer, unassigned) [4-43 Isomer 2] , please?
79.4

In the following, a different molecule is considered.
Param item = CCCN1C(=O)CC2(CCN(C3CC4(CCN(C(=O)OCC)C4)C3)CC2)N1CC (single isomer, unassigned) [6-9 Isomer 2] ; retrieve measured EC50.
39.8

---

Target: human muscarinic M1 receptor (Homo sapiens)
Construct: expressed in transfected cells
Sequence (P11229 whole entry): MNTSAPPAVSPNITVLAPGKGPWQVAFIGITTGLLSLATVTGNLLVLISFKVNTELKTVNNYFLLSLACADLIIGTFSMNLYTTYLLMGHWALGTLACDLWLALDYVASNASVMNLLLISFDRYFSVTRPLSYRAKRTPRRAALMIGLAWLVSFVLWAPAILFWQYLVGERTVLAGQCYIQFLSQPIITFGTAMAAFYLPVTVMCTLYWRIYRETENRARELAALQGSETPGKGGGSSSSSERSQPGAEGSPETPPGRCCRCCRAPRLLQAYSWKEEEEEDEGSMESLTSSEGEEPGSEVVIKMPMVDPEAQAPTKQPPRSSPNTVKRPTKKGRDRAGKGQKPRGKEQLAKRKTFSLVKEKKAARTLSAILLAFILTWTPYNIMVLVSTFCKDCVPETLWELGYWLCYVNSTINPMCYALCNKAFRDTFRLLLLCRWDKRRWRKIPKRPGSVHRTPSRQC
Experiment: Alphascreen Surefire phospho-ERK1/2 functional assay, M1
Assay type: cell-based
Details: CHO cells stably expressing human M1; phospho-ERK1/2; read-out: pEC50 M1 (converted)
Readout label: EC50 (nM)
The reply should contain only the number, in nM.

Examples with answers:
Which EC50 value is on record for CCOC(=O)N1CC2(CCC(N3CCC4(CC3)OC(=O)NC4CC)C2)C1 (mixture of isomers) [8-1 mixture of diastereomers] ?
10

Moving on to the next molecule: CCOC(=O)N1CCC2(CC(N3CCC4(CC3)OC(=O)NC43CC(F)(F)C3)C2)C1 (single isomer, unassigned) [4-30 Isomer 1]
1260

For CCOC(=O)N1CCC2(CC(N3CCC4(CC3)CC(=O)NC4C)C2)C1 (single isomer, unassigned) [3-3 Isomer 2] then?
158

Can you check CCCN1C(=O)OC2(CCN(C3CC4(CCN(C(=O)OC)C4)C3)CC2)C1(C)C (single isomer, unassigned) [4-36 Isomer 2] next?
12600

Would you kindly look at the next entry?
What does the record list as EC50 for CCOC(=O)N1CC2(CCC(N3CCC4(CC3)OC(=O)N(CC)C4(C)C)C2)C1 (racemic) [8-4 racemic] ?
200
